# ASSAY SUMMARY: chemical genetic growth profiling, strain panel (AID 1159580);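 further: tested at 20 µM; growth read once vehicle control cultures reached saturation at 30 °C; 1 = growth at the plate median or of vehicle wells; lower values mean less growth of the strain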
# EXPERIMENTAL CONTEXT: S. cerevisiae deletion strains, growth OD, locus YGL173C, strain kem1, active compounds read low
Among all 5,500 compounds or so, about 2,000 (36%) were called active. Not shown: some 18% with an inconclusive outcome. The list shows a part of the results.
Threshold 1: normalized growth strictly smaller gives Y, otherwise N.

- O=C(Oc1cccc2cccnc12)c1ccccc1: Y
- CSc1nc(NC(C)C)nc(NC(C)C)n1: Y
- C[C@H]1O[C@H](O[C@H]2[C@H](O)[C@@H](O)[C@@H](O[C@H]3[C@H](O)[C@@H](O)C(O)O[C@@H]3CO)O[C@@H]2CO)[C@H](O)[C@@H](O)[C@@H]1N[C@H]1C=C(CO)[C@@H](O)[C@H](O)[C@H]1O (stereo not given in full): Y
- CC1(C)[C@@H]2CC[C@@]1(C)C(=O)C2: N

###

# ASSAY SUMMARY: chemical genetic growth profiling, strain panel (AID 1159580)
# EXPERIMENTAL CONTEXT: S. cerevisiae deletion strains, growth OD, locus YNL248C, strain rpa49
Hit rate of the full screen: of about 5,500 compounds, about 2,000 (36%) were called active. Another 18% or so got no clear call; they are omitted. Rule as the data show it: active = normalized growth mostly below about 0.91 (no sharp cut-off); inconclusive = no clear call, values can overlap the other calls; inactive = mostly above about 0.92. The list shows a part of the results.
Labels: active, inactive

• C/C=C(\C)C(=O)O[C@@H]1c2c(ccc3ccc(=O)oc23)OC(C)(C)[C@@H]1OC(C)=O = inactive
• C[C@@H]1CC[C@@]23CCC4(C)[C@@](C=CC5[C@@]6(C)CCC(=O)C(C)(C)C6CC[C@]54C)(OC2=O)C3[C@H]1C (stereo partly specified) = inactive
• CC(C)c1cccc(O)c(=O)c1 = active
• COC(=O)[C@H]1[C@H]2C[C@H]3c4[nH]c5cc(OC)ccc5c4CCN3C[C@H]2C[C@@H](OC(=O)c2cc(OC)c(OC)c(OC)c2)[C@@H]1OC = inactive
• NC[C@H]1O[C@H](OC2[C@@H](N)C[C@@H](N)[C@H](O[C@H]3O[C@H](CO)[C@@H](O)[C@H](N)[C@H]3O)[C@H]2O)[C@H](O)[C@@H](O)[C@@H]1O (stereo partly specified) = inactive
• CC(C)(C)NCC(O)COc1cccc2c1C[C@H](O)[C@H](O)C2 (stereo partly specified) = inactive
• CNC[C@H](O)c1cccc(O)c1 = inactive
• Cc1ncc(CO)c(CO)c1O = inactive
• CC(C)c1cccc(C(C)C)c1O = inactive
• O=S(=O)(O)O = inactive
• CC(=O)O[C@@H]1CC2C(C)(CC[C@H](O)C2(C)C)C2CC[C@]3(C)C(=CC(=O)O[C@H]3c3ccoc3)C21C (stereo partly specified) = inactive
• CC(=O)Oc1ccccc1C(=O)Oc1ccccc1C(=O)O = inactive
• COc1cccc2c1CCC1=CC(=O)CC[C@@]12C = inactive
• COP(N)(=O)SC (stereo unspecified) = inactive
• Nc1ccc(S(=O)(=O)Nc2ncccn2)cc1 = inactive
• O=C(CCCN1CCN(c2ccccn2)CC1)c1ccc(F)cc1 = active
• CCCCCC(O)C1C(=O)OC(C)C(O)/C=C/C=C/C=C/C=C/C=C(\C)C(O)CC(O)CC(O)CC(O)CC(O)CC(O)CC1O (stereo unspecified) = inactive
• O=C(CCCN1CCC(O)(c2ccc(Cl)cc2)CC1)c1ccc(F)cc1 = active
• Cc1c(OCC(F)(F)F)ccnc1CS(=O)c1nc2ccccc2[nH]1 (stereo unspecified) = inactive
• CC1Cc2ccccc2N1NC(=O)c1ccc(Cl)c(S(N)(=O)=O)c1 (stereo unspecified) = inactive
• CC1(C)C(O)CC(=O)C2(C)C1CC(O)C1(C)C2CCC2(C)C(c3ccoc3)OC(=O)C3OC321 (stereo unspecified) = inactive

###

# ASSAY SUMMARY: chemical genetic growth profiling, strain panel (AID 1159580)
# EXPERIMENTAL CONTEXT: S. cerevisiae deletion strains, growth OD, locus YDR297W, strain sur2, active compounds read low
Out of some 5,500 compounds screened, about 2,000 (36%) were called active. Another 18% or so got no clear call; they are omitted. Some of the results follow.
normalized growth overview
PARAMETER MEASURED: normalized growth

• CC(C)c1cccc(O)c(=O)c1 = 0.0622
• COc1c(O)cc2c(c1O)[C@H]1O[C@H](CO)[C@@H](O)[C@H](O)[C@@H]1OC2=O = 1.02
• CCn1nc(C(=O)O)c(=O)c2cc3c(cc21)OCO3 = 1.01
• COC(=O)CC1C(C)(C)C(OC(C)=O)[C@@H]2[C@@H](OC(C)=O)[C@]34O[C@@]2(O)[C@]1(C)C3CC[C@]1(C)C4=CC(=O)O[C@H]1c1ccoc1 (some centres undefined) = 1.02
• C=CCSSCC=C = 1.03
• C=CCSSSCC=C = 0.989
• O=c1c(-c2ccc(O)cc2)coc2c(C3O[C@H](CO)[C@@H](O)[C@H](O)[C@H]3O)c(O)ccc12 (some centres undefined) = 0.978
• CC(C)Nc1nc(Cl)nc(NC(C)C)n1 = 1
• CSc1nc(NC(C)C)nc(NC(C)C)n1 = 0.975

###

normalized growth overview
# ASSAY SUMMARY: chemical genetic growth profiling, strain panel (AID 1159580);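 further: tested at 20 µM; growth read once vehicle control cultures reached saturation at 30 °C; 1 = growth at the plate median or of vehicle wells; lower values mean less growth of the strain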
# EXPERIMENTAL CONTEXT: S. cerevisiae deletion strains, growth OD, locus YMR058W, strain fet3, active compounds read low
Screen size: about 5,500 compounds; about 2,000 (36%) were called active. About 18% were inconclusive and are not listed. This is one part of the list.
PARAMETER MEASURED: normalized growth

* O=S(=O)(O)O | 0.985
* Cc1cc(N)c2ccccc2[n+]1CCCCCCCCCC[n+]1c(C)cc(N)c2ccccc21 | 0.0627
* COC1=CC(=O)C=C(OC)C1=O | 1.02
* NC[C@H]1O[C@H](O[C@H]2[C@H](O)[C@@H](O[C@H]3O[C@H](CO)[C@@H](O)[C@H](N)[C@H]3O)[C@H](N)C[C@@H]2N)[C@H](N)[C@@H](O)[C@@H]1O | 0.997
* COc1nc(NC(C)C)nc(NC(C)C)n1 | 1.03

###

# ASSAY SUMMARY: chemical genetic growth profiling, strain panel (AID 1159580);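 further: tested at 20 µM; growth read once vehicle control cultures reached saturation at 30 °C; 1 = growth at the plate median or of vehicle wells; lower values mean less growth of the strain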
# EXPERIMENTAL CONTEXT: S. cerevisiae deletion strains, growth OD, locus YHR142W, strain chs7, active compounds read low
Among all 5,500 compounds or so, about 2,000 (36%) were called active. Not shown: some 18% with an inconclusive outcome. The list shows a part of the results.
Threshold 1: normalized growth strictly smaller gives rule met, otherwise rule not met.

* COC1C(O)C(O[C@H]2CC[C@]3(C=O)C4C(CC[C@]3(O)C2)[C@@]2(O)CC[C@H](C3=CC(=O)OC3)[C@@]2(C)C[C@H]4OC(C)=O)OC(C)C1OC(C)=O (stereo not given in full) | rule not met
* COc1nc(NC(C)C)nc(NC(C)C)n1 | rule not met
* CC1(C)S[C@@H]2[C@H](NC(=O)C(C(=O)O)c3ccccc3)C(=O)N2[C@H]1C(=O)O (stereo not given in full) | rule met
* CC[C@@]1(O)C(=O)OCc2c1cc1n(c2=O)Cc2cc3ccccc3nc2-1 | rule met
* CC(=O)N1CCN(c2ccc(OCC3CO[C@](Cn4ccnc4)(c4ccc(Cl)cc4Cl)O3)cc2)CC1 (stereo not given in full) | rule met
* CCc1ccc2c(O)c3c(cc2c1C(=O)OC)C(=O)c1c(O)ccc(O)c1C3=O | rule met
* CC(=O)OC1CC[C@@]2(C)C(CCC3C2CC[C@]2(C)C(C4=CC(=O)OC4)C(OC(C)=O)CC32O)C1 (stereo not given in full) | rule met
* CSc1nc(NC(C)C)nc(NC(C)C)n1 | rule met

###

# ASSAY SUMMARY: chemical genetic growth profiling, strain panel (AID 1159580);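 further: tested at 20 µM; growth read once vehicle control cultures reached saturation at 30 °C; 1 = growth at the plate median or of vehicle wells; lower values mean less growth of the strain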
# EXPERIMENTAL CONTEXT: S. cerevisiae deletion strains, growth OD, locus YCL069W, strain vba3, active compounds read low
About 2,000 (36%) of roughly 5,500 compounds were called active. About 18% were inconclusive and are not listed. This is one part of the list.
PARAMETER MEASURED: normalized growth

- CCC(=O)OCC(=O)C1(OC(=O)CC)C(C)CC2C3C(Cl)CC4=CC(=O)C=CC4(C)C3C(O)CC21C (configuration not stated): 1.04
- O=c1c2cc(O)c(O)cc2oc2cc(O)c(C3O[C@H](CO)[C@H](O)[C@@H](O)[C@H]3O)c(O)c12 (some centres not stated): 1.02
- CCCCC(=O)O[C@]1(C(=O)CO)[C@@H](C)CC2C3CCC4=CC(=O)C=C[C@]4(C)[C@@]3(F)C(O)C[C@@]21C (some centres not stated): 0.989
- CCC(=O)OCC(=O)[C@@]1(OC(=O)CC)[C@@H](C)CC2C3CCC4=CC(=O)C=C[C@]4(C)C3(F)[C@@H](O)C[C@@]21C (some centres not stated): 0.996
- O=c1c(-c2ccc(O)cc2)coc2c(C3O[C@H](CO)[C@@H](O)[C@H](O)[C@H]3O)c(O)ccc12 (some centres not stated): 0.973
- C[C@H]1[C@H](C)CC[C@]2(C(=O)O)CC[C@]3(C)C(=CCC4[C@@]5(C)C[C@@H](O)[C@H](O)[C@@](C)(CO)C5[C@H](O)C[C@]43C)[C@H]12 (some centres not stated): 0.973
- CCc1ccc2c(O)c3c(cc2c1C(=O)OC)C(=O)c1c(O)ccc(O)c1C3=O: 0.981
